test: inhibitors of TNFa-induced NFkB p65 translocation, primary screen, imaging, HUVEC, MLSMR starter and 10KST1 sets (AID 438); conditions: HUVEC TNFa-induced p65 nuclear translocation; measured here: nuclei count (cytotoxicity indicator), at 2.08 µM;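 note: compound added about 3h40 before a 20 min TNFalpha stimulation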
attributeMeasured: cell count
API note: the answer field is a bare number with no unit suffix.

Sample records with cell count:
Cc1noc(NS(=O)(=O)c2ccc(N)cc2)c1C : 559
COCCOC(=O)C1=C(C)OC(N)=C(C#N)C1c1ccco1 (stereo not drawn) : 364
Nc1nnnn1CC(=O)OCc1cccc(Br)c1 : 351

--- query ---
# get_value(readout='cell count', item= `CCCCCCC(=O)N1CCN(c2cc3c(cc2F)c(=O)c(C(=O)O)cn3CC)CC1` )
402

###

Reported inhibition is given for each of the following compounds.
experiment: inhibitors of E-selectin induction by TNFa, primary screen, imaging, HUVEC, immunofluorescence, MLSMR starter and 10KST1 sets (AID 487); conditions: HUVEC TNFalpha-induced E-selectin immunofluorescence imaging, at 2 µM; stronger effect = higher value;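 note: signal is fraction of cell area covered by stained E-selectin grains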
Answer format: numeric, % implied, no suffix.

Sample records with inhibition:
CCCOc1ccc(N2C(=O)C3ON(c4ccccc4)C(c4ccc(O)c(OC)c4)C3C2=O)cc1 (configuration not stated) : -53.3
CN1C(=O)C2(N=c3ccccc3=N2)c2ccccc21 : -152
CN(CC(O)COc1ccc(OCC(O)CN(C)C2CCCCC2)cc1)C1CCCCC1 (configuration not stated) : -149
O=C(c1ccccc1F)N1CCC(N2CCCCCC2)CC1 : -138
Cc1c(/C(O)=C2/C(=O)C(=O)N(CCCN3CCOCC3)C2c2ccncc2)cnn1-c1ccccc1 (configuration not stated) : -181

# get_value(readout='inhibition', item= CCCC1C2C(=O)N(c3ccccc3OC)C(=O)C2ON1c1ccccc1 (configuration not stated) )
-107

# get_value(readout='inhibition', item= `C[C@]12CC[C@H]3[C@@H](CCC4=CC(=O)CC[C@@]43C)[C@@H]1CC[C@@H]2C(=O)CO` )
-114

# get_value(readout='inhibition', item= `COc1ccccc1-c1nn2c(-c3ccc(C(C)(C)C)cc3)nnc2s1` )
-76.5

# get_value(readout='inhibition', item= `O=C1[C@@H]2[C@H](C(=O)N1O)[C@H]1C=C[C@@H]2C1` )
-174

###

assay: inhibitors of Sendai virus-induced IRF3 signaling, primary screen, TLR/RLR signaling modifier project, cell-based, Sendai virus stimulus, luciferase, 10K MLSCN set (AID 602276); settings: HEK293 RL24 IRF3 luciferase reporter, at 10 µM, stronger effect = higher value;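 note: firefly luciferase from ISG56 promoter only with Renilla not read in this screen; 0% = Sendai virus plus DMSO and 100% = medium plus DMSO without virus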
Calls of active or inactive are those of the source.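 How the source made its calls: active means inhibition at or above 50% at 10 µM; inactive means inhibition below 50%.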
Reported inhibition is given for each of the following molecules.

Cc1ccc(NC(=O)CSC2=C(C#N)C(c3ccc4c(c3)OCO4)CC(=O)N2)cc1C (stereo not drawn) : -18.5% (inactive)
C(=C\c1ccccc1)/CN1CCN(C(c2ccccc2)c2ccccc2)CC1 : 9.39% (inactive)
Cc1c(CCC#N)c(N2CCN(C3CCCCC3)CC2)n2c(nc3ccccc32)c1C#N : 19.2% (inactive)
CCSc1nnc(NC(=O)C(CC)(C(F)(F)F)C(F)(F)F)s1 : -0.9% (inactive)
O=C1C2ON(c3ccccc3)C(c3cccnc3)C2C(=O)N1c1ccccc1 (stereo not drawn) : -8.41% (inactive)

# get_value(readout='inhibition', item= `CCCCCC(=O)N1CC2(C)CN(C(=O)CCCCC)CC(C)(C1)C2=O` )
6.58% (inactive)

# get_value(readout='inhibition', item= COCCCN1C(=O)C(O)=C(C(=O)c2ccco2)C1c1ccc(Br)cc1 (stereo not drawn) )
23.9% (inactive)

# get_value(readout='inhibition', item= `Cn1c(=O)c2c(ncn2CCO)n(C)c1=O` )
14.7% (inactive)

# get_value(readout='inhibition', item= `COC(=O)c1cc(Br)c(=O)n(Cc2cccnc2)c1` )
9.75% (inactive)

# get_value(readout='inhibition', item= `COc1cccc(-c2nnc3sc(-c4ccc(C)cc4)nn23)c1` )
2.84% (inactive)

# get_value(readout='inhibition', item= `CCNCc1cc2cc(C)ccc2[nH]c1=O` )
3.24% (inactive)

###

Reported inhibition is given for each of the following compounds.
biological target: Dual specificity protein phosphatase 6 (Homo sapiens) (UniProt Q16828); test: DUSP6 inhibitors restoring Erk phosphorylation by chemical complementation, primary imaging in DUSP6-transfected HeLa (AID 609); settings: HeLa MKP-3 transfected, phospho-Erk imaging KS statistic; at 10 µM; stronger effect = higher value; cells stimulated with TPA for 15 min;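 for inhibition: phospho-Erk level distribution per well compared with pooled transfected vehicle control wells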
Sequence (Q16828 whole entry, looked up): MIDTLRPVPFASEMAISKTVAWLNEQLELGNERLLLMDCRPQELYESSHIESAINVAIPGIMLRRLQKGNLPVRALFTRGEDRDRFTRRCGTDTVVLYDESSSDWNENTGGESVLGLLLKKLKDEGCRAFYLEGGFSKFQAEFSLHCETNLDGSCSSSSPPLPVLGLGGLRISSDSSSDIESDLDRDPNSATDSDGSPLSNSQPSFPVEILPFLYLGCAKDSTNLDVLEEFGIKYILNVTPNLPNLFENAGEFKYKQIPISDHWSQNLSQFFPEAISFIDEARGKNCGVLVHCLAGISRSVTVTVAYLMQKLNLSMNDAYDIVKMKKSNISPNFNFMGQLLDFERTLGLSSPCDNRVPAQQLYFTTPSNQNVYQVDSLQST
Answer format: numeric, % implied, no suffix.

Recorded inhibition for `Cc1csc2nc(CSc3nc4ccccc4o3)cn12` with Dual specificity protein phosphatase 6 (Homo sapiens) (UniProt Q16828), please?
3.56

###

Reported inhibition is given for each of the following molecules.
test: inhibitors of Chlamydomonas gravitaxis, primary screen, whole organism, Chlamydomonas reinhardtii, WT vs cilia-less mutant, absorbance, 96-well (AID 463189); conditions: OD600 absorbance, 2 days, at 10 µM, stronger effect = higher value;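 note: 0% = wild type cc124 cells in DMSO and 100% = ciliumless bld1 mutant cells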
Answer format: numeric, % implied, no suffix.

O=C1[C@@H]2[C@H](C(=O)N1n1cnnc1)[C@H]1C=C[C@@H]2C1 : 13.5

# get_value(readout='inhibition', item= `Cc1nn(C)cc1/C=N/O` )
7.83

# get_value(readout='inhibition', item= `CC1(C)Cc2c(sc3ncn4nnnc4c23)CO1` )
9.27

# get_value(readout='inhibition', item= `Cc1cc(C)c2c(N)c(C(=O)c3ccccc3)oc2n1` )
14.6

###

assay: DUSP6 inhibitors restoring Erk phosphorylation by chemical complementation, primary imaging in DUSP6-transfected HeLa (AID 609); details: HeLa MKP-3 transfected, phospho-Erk imaging KS statistic; measured here: nuclear c-Myc green intensity z-score; at 10 µM; cells stimulated with TPA for 15 min
Each record's z-score is compared with class 0: < 0.1; class 1: ≥ 0.1 and < 0.6; class 2: ≥ 0.6 to give its class.

CN1CCC2(CC1)C1CN(C)CC=C1C(C#N)=C(N)C2(C#N)C#N (stereo not drawn) : class 2

Entry `COc1ccc(CNC(=O)c2c(C)cc(=O)oc2C)cc1OC` belongs to which category?
class 1

Entry `O=C(O)CCSc1ccc2ccccc2n1` belongs to which category?
class 0

Entry `COC(=O)c1cc(Br)c(=O)n(-c2nccs2)c1` belongs to which category?
class 2

Entry `COc1ccc(C(=O)Nc2nc(N)n(-c3ccccc3)n2)cc1OC` belongs to which category?
class 2

Entry `CCOc1cccc(-c2nn3c(-c4ccccn4)nnc3s2)c1` belongs to which category?
class 0

Entry `CCCCC1C(=O)N(c2ccccc2)N(c2ccccc2)C1=O` belongs to which category?
class 0

Entry COc1ccc(C2/C(=C(/O)c3ccc(OC(C)C)cc3)C(=O)C(=O)N2CCCN2CCOCC2)cc1 (stereo not drawn) belongs to which category?
class 1

Entry COc1cccc(C2=CC(c3ccccc3)n3nnnc3N2)c1 (stereo not drawn) belongs to which category?
class 1

Entry `Cc1nc(Sc2cccn2C)c(C(F)(F)F)c(=O)[nH]1` belongs to which category?
class 1

Entry `CCN1CCN(c2cc3c(cc2F)c(=O)c(C(=O)O)cn3C2CC2)CC1` belongs to which category?
class 1

Entry `C=CCNc1nc(-c2ccc(O)c(C(N)=O)c2)cs1` belongs to which category?
class 0

###

assay: inhibitors of TNFa-induced NFkB p65 translocation, primary screen, imaging, HUVEC, MLSMR starter and 10KST1 sets (AID 438); details: HUVEC TNFa-induced p65 nuclear translocation; measured here: nuclei count (cytotoxicity indicator), at 2.08 µM;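 note: compound added about 3h40 before a 20 min TNFalpha stimulation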
Reported cell count is given for each of the following compounds.
API note: the answer field is a bare number with no unit suffix.

COc1ccc(-n2c(SCC(N)=O)nc3sc4c(c3c2=O)CCN(C)C4)cc1 : 537

# get_value(readout='cell count', item= COc1cccc(OC)c1OCC(C)CNCC1CCCO1 (stereo not drawn) )
524

# get_value(readout='cell count', item= `CSc1nc2sc3c(c2c2nnnn12)CC(C)(C)OC3` )
661

###

assay: inhibitors of TNFa-induced NFkB p65 translocation, primary screen, imaging, HUVEC, MLSMR starter and 10KST1 sets (AID 438); conditions: HUVEC TNFa-induced p65 nuclear translocation; measured here: nuclei count (cytotoxicity indicator), at 2.08 µM;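 note: compound added about 3h40 before a 20 min TNFalpha stimulation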
attributeMeasured: cell count
API note: the answer field is a bare number with no unit suffix.

Sample records with cell count:
C/C=C/c1ccccc1OCc1ccc(C(=O)O)o1 : 540
CCOC(=O)CC(=O)CSc1nc(N)c(C#N)c(-c2ccc(F)cc2)c1C#N : 650

# get_value(readout='cell count', item= `CCCn1c(=O)[nH]c(=O)c2[nH]cnc21` )
615

###

target: Voltage-gated potassium channel subunit beta-2 (Rattus norvegicus); assay: KvBeta positive modulators, primary screen, biochemical, NADPH fluorescence (AID 623); details: Recombinant KvBeta, NADPH fluorescence decrease slope, 10 min; at 10 µM; stronger effect = lower value;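 note: fluorescence intensity change per second fitted from 20 to 320 s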
attributeMeasured: NADPH fluorescence slope
API note: the answer field is a bare number with no unit suffix.

CC(=O)Nc1cc2c(cc1Br)OCCO2 : -3.4e-05
CCCCOc1ccc(C2CC(=O)N(C)C2=O)cc1 (stereo not drawn) : -6.5e-05
COc1ccc(Nc2oc(-c3cccs3)nc2C#N)cc1 : -1.7e-05
CCOC(=O)C1=C[C@]2(CC)CCCN3CCc4c(n1c1ccccc41)[C@@H]32 : -4.6e-05
CCCC1C2C(=O)N(c3ccccc3OC)C(=O)C2ON1c1ccccc1 (stereo not drawn) : -2.6e-05
CC(=O)C1=C(O)C(=O)N(c2ccc(C(=O)O)cc2)C1c1ccccc1 (stereo not drawn) : -5.9e-06
COc1ccc2cnn(-c3ccccc3C)c(=O)c2c1OC : -3.7e-05
Cc1nnc2n(-c3ccccc3)c(=O)c3c4c(sc3n12)COC(C(C)C)C4 (stereo not drawn) : -2.6e-05

Recorded NADPH fluorescence slope for `CCc1cc2c(=O)c(-c3cscn3)coc2c(CN(C)C)c1O` with Voltage-gated potassium channel subunit beta-2 (Rattus norvegicus), please?
-2.5e-06

Recorded NADPH fluorescence slope for `c1coc(-c2nc3nc4ccccc4nc3n2-c2ccc3c(c2)OCCO3)c1` with Voltage-gated potassium channel subunit beta-2 (Rattus norvegicus), please?
-0.000166

Recorded NADPH fluorescence slope for `COc1cccc(-c2nn3c(-c4ccco4)nnc3s2)c1` with Voltage-gated potassium channel subunit beta-2 (Rattus norvegicus), please?
-0.000142

Recorded NADPH fluorescence slope for COC(=O)C1=C(C)OC(N)=C(C#N)C1c1ccc(OC)c(OC)c1OC (stereo not drawn) with Voltage-gated potassium channel subunit beta-2 (Rattus norvegicus), please?
-8.1e-05

Recorded NADPH fluorescence slope for `N#C/C(=C\N1CCN(Cc2ccc3c(c2)OCO3)CC1)c1nc2ccccc2s1` with Voltage-gated potassium channel subunit beta-2 (Rattus norvegicus), please?
-0.000152

Recorded NADPH fluorescence slope for `CN(C)CCCN1c2ccccc2CCc2ccc(Cl)cc21` with Voltage-gated potassium channel subunit beta-2 (Rattus norvegicus), please?
3.7e-05

Recorded NADPH fluorescence slope for `COc1cc(C)nc(Oc2ccc(=O)n(C)n2)n1` with Voltage-gated potassium channel subunit beta-2 (Rattus norvegicus), please?
-2.2e-05

Recorded NADPH fluorescence slope for `CCCCOc1ccc(CC(=O)NO)cc1` with Voltage-gated potassium channel subunit beta-2 (Rattus norvegicus), please?
-4.3e-05
